# System: U2OS
# Assay Overview: Multiplex assay against U2OS
# Assay type: toxicity, cell-based
# Conditions Used: human, 48 h, 10 µM, compound concentration 10 uM, replicate 1
In this section we review reported Population Membrane Permeable-Phenotype (%) values for a set of molecules.

Use the examples below as a reference point.
C[C@@H]1C[C@H]2[C@@H]3CCC4=CC(=O)C=C[C@]4(C)[C@@]3(F)[C@@H](O)C[C@]2(C)[C@@]1(O)C(=O)CO [DEXAMETHASONE] | 4%
Cl.Clc1ccc2nsnc2c1NC1=NCCN1 [TIZANIDINE HYDROCHLORIDE] | 5%
CN1CCN2c3ncccc3Cc3ccccc3C2C1 (stereo not given) [MIRTAZAPINE] | 7%
O=C(O)Cc1ccccc1Nc1c(Cl)cccc1Cl [DICLOFENAC] | 6%
CN(C)c1ccnc2sc3c(=O)n(N4CCCCCC4)cnc3c12 | 15%
Oc1c(CN2CCN(c3ccccn3)CC2)cc(Cl)c2cccnc12 | 11%
O=C(NCCO)c1cccc(-c2cc(Nc3ccc(OC(F)(F)F)cc3)ncn2)c1 | 8%
COc1c(C)cc(NC(=O)c2nn(Cc3ccc(F)cc3)c3c2CN(C(=O)c2ccc[nH]2)C[C@]3(C)C(N)=O)cc1C | 69%
c1cc(OCCCN2CCCCC2)ccc1CN1CCCCC1 [JNJ-5207852] | 7%

Given O=C(NCC(=O)N1CC[C@H](N[C@H]2CC[C@@](O)(c3ccc(-c4ncccn4)cn3)CC2)C1)c1cccc(C(F)(F)F)c1 [PF-4136309] , state its recorded Population Membrane Permeable-Phenotype (%). 9%

* * *

In this section we review reported Population Normal (%) values for a set of molecules.
# System: HEK-293T
# Assay Overview: Multiplex assay against HEK293T
# Assay type: toxicity, cell-based
# Conditions Used: human, 48 h, 1 µM, compound concentration 1 uM, replicate 1
Answer format: numeric, % implied, no suffix.

Use the examples below as a reference point.
CNC[C@H](O)c1ccc(O)c(O)c1 [EPINEPHRINE] | 96
CSc1ccccc1N1CCN(CCCCCC(=O)NC2CCCc3ccccc32)CC1.Cl (stereo not drawn) | 95

Kindly review the next molecule as well.
Query the reported Population Normal (%) for HEK-293T; item: CC(=O)NCCc1c(Cc2ccccc2)[nH]c2ccccc12 [LUZINDOLE] 96

* * *

# Test system: U2OS
# Assay Overview: Multiplex assay against U2OS
# Format: toxicity, cell-based
# Conditions Used: human, 12 h, 10 µM, compound concentration 10 uM, replicate 2
Hi all, reminder that labels come from Population Mitotic Cells (%), split as low bracket (below 10%), middle bracket (10% to below 20%), high bracket (20% or more)

As a guide, the following entries are already answered.
CSc1ccccc1N1CCN(CCCCCC(=O)NC2CCCc3ccccc32)CC1.Cl (stereo unspecified) | middle bracket
Cc1ccc(/C(=C\CN2CCCC2)c2ccccn2)cc1 | high bracket
O=C(NCC(=O)N1CC[C@H](N[C@H]2CC[C@@](O)(c3ccc(-c4ncccn4)cn3)CC2)C1)c1cccc(C(F)(F)F)c1 | high bracket
O=C(NCCO)c1cccc(-c2cc(Nc3ccc(OC(F)(F)F)cc3)ncn2)c1 | low bracket
CC1(COc2ccc3c(c2)ncn3-c2ccc3cccc(N4CCC(N)CC4)c3n2)COC1 | low bracket
Cc1ccc(F)cc1C(=O)Nc1ccc(C(=O)N2Cc3cccn3Cc3ccccc32)c(Cl)c1 | high bracket
COc1cc(C(=O)N(CCCc2ccccc2)Cc2ccc(CC(=O)O)cc2)cc(OC)c1C | low bracket
O=C(O)c1cc2ccccc2c(Cc2c(O)c(C(=O)O)cc3ccccc23)c1O | middle bracket

Using the reported Population Mitotic Cells (%), which band applies to `CCNC1(C(N)=O)CCN(c2ncnc3c2nc(-c2ccccc2Cl)n3-c2ccc(Cl)cc2)CC1` ? high bracket

Field entry: `CN1CCN(c2nc3cc(C(F)(F)F)ccc3n3cccc23)CC1.O=C(O)/C=C\C(=O)O.O=C(O)/C=C\C(=O)O` middle bracket

Field entry: `Cc1nc2ccc(Oc3ccc(F)cc3)cc2c(=O)n1C[C@H]1CCCN(C(C)C)C1.Cl` high bracket

Field entry: Cc1ccc(C(C)(O)c2nc3ccccc3s2)c(C)c1 (stereo unspecified) high bracket

Field entry: Cc1ccccc1C(=O)Nc1ccc(C(=O)N2CCCC(N(C)C)c3ccccc32)cc1.Cl (stereo unspecified) high bracket

Field entry: `C[C@H]1[C@H]2CC[C@H]3[C@@H]4CC=C5C[C@@H](N(C)C)CC[C@]5(C)[C@H]4CC[C@]23CN1C` low bracket
